tested on: barnyard grass; experiment: Test of herbicidal activity, post-seedling stem and leaf spray in greenhouse, barnyard grass; assay type: in vivo; conditions: post-seedling stem and leaf spray, dose 150 g a.i/ha
Measured Quantity: Barnyard grass (%) control effect

INSERT INTO results (compound, endpoint_value) VALUES
  ('Cc1nn(Cc2c(S(C)(=O)=O)ccc(C(=O)c3c(C)nn(C)c3OC(=O)c3cn(C)nc3C(F)(F)F)c2Cl)c(=O)o1', '85%'),
  ('Cc1nn(Cc2c(S(C)(=O)=O)ccc(C(=O)c3c(C)nn(C)c3OC(=O)c3cnn(C)c3Cl)c2Cl)c(=O)o1', '85%'),
  ('CS(=O)(=O)c1ccc(C(=O)C2C(=O)CCCC2=O)c(Cl)c1CN1CCOCC1 [Control compound C, reference compound]', '70%'),
  ('CCS(=O)(=O)c1ccc(C(=O)c2c(C)nn(C)c2OC(=O)c2cc(C)nn2C)c(Cl)c1Cn1nc(C)oc1=O', '85%');

Summary line: CS(=O)(=O)c1ccc(C(=O)C2C(=O)CCCC2=O)c(Cl)c1 [Control compound A, reference compound] , barnyard grass, reported Barnyard grass (%) control effect = 50%

Summary line: CCOC1=C(C(=O)c2ccc(S(C)(=O)=O)c(Cn3nc(C)oc3=O)c2Cl)C(=O)CCC1 , barnyard grass, reported Barnyard grass (%) control effect = 90%

Summary line: Cc1nn(Cc2c(S(C)(=O)=O)ccc(C(=O)c3c(C)nn(C)c3OC(=O)c3c(C(F)(F)F)nn(C)c3Cl)c2Cl)c(=O)o1 , barnyard grass, reported Barnyard grass (%) control effect = 85%

----------
system: crabgrass; assay: Test of herbicidal activity, post-seedling stem and leaf spray in greenhouse, crabgrass; assay type: in vivo; conditions: post-seedling stem and leaf spray, dose 300 g a.i/ha
Measured Quantity: Crabgrass (%) control effect
The answer is to be given in %; state only the numeric part.

Below, each entry is followed by its recorded Crabgrass (%) control effect result.
INSERT INTO measurements (molecule, units_symbol, endpoint_value) VALUES
  ('CS(=O)(=O)c1ccc(C(=O)C2C(=O)CCCC2=O)c(Cl)c1CN1CCOCC1 [Control compound C, reference compound]', '%', 70),
  ('Cc1nn(Cc2c(S(C)(=O)=O)ccc(C(=O)C3C(=O)CCCC3=O)c2Cl)c(=O)o1', '%', 95),
  ('CCOC1=C(C(=O)c2ccc(S(C)(=O)=O)c(Cn3nc(C)oc3=O)c2Cl)C(=O)CCC1', '%', 90),
  ('CS(=O)(=O)c1ccc(C(=O)C2C(=O)CCCC2=O)c(Cl)c1 [Control compound A, reference compound]', '%', 50),
  ('Cc1nn(C)c(O)c1C(=O)c1ccc(S(C)(=O)=O)cc1Cl [Control compound B, reference compound]', '%', 45);

Note to self: Crabgrass (%) control effect recorded for CCS(=O)(=O)c1ccc(C(=O)c2c(C)nn(C)c2OC(=O)c2cc(C)nn2C)c(Cl)c1Cn1nc(C)oc1=O was 84

Note to self: Crabgrass (%) control effect recorded for Cc1nn(Cc2c(S(C)(=O)=O)ccc(C(=O)c3c(C)nn(C)c3OC(=O)c3cnn(C)c3Cl)c2Cl)c(=O)o1 was 85

Note to self: Crabgrass (%) control effect recorded for Cc1nn(Cc2c(S(C)(=O)=O)ccc(C(=O)c3c(C)nn(C)c3OC(=O)c3c(C(F)(F)F)nn(C)c3Cl)c2Cl)c(=O)o1 was 88

Note to self: Crabgrass (%) control effect recorded for Cc1nn(Cc2c(S(C)(=O)=O)ccc(C(=O)c3c(C)nn(C)c3OC(=O)c3cn(C)nc3C(F)(F)F)c2Cl)c(=O)o1 was 85

Note to self: Crabgrass (%) control effect recorded for Cc1nn(Cc2c(S(C)(=O)=O)ccc(C(=O)c3c(C4CC4)nn(C)c3OC(=O)c3c(C)nn(C)c3Cl)c2Cl)c(=O)o1 was 90
